Reference source: patent US6521594

Target: T1, Fibronectin receptor (human, UniProt P08648 42-1049; P05556 21-798)
T1 construct: mature; Purified on a 110 kd fibronectin fragment column; also called Fn-R; FnR
T1 sequence (P08648 42-1049, chain 1 of 2): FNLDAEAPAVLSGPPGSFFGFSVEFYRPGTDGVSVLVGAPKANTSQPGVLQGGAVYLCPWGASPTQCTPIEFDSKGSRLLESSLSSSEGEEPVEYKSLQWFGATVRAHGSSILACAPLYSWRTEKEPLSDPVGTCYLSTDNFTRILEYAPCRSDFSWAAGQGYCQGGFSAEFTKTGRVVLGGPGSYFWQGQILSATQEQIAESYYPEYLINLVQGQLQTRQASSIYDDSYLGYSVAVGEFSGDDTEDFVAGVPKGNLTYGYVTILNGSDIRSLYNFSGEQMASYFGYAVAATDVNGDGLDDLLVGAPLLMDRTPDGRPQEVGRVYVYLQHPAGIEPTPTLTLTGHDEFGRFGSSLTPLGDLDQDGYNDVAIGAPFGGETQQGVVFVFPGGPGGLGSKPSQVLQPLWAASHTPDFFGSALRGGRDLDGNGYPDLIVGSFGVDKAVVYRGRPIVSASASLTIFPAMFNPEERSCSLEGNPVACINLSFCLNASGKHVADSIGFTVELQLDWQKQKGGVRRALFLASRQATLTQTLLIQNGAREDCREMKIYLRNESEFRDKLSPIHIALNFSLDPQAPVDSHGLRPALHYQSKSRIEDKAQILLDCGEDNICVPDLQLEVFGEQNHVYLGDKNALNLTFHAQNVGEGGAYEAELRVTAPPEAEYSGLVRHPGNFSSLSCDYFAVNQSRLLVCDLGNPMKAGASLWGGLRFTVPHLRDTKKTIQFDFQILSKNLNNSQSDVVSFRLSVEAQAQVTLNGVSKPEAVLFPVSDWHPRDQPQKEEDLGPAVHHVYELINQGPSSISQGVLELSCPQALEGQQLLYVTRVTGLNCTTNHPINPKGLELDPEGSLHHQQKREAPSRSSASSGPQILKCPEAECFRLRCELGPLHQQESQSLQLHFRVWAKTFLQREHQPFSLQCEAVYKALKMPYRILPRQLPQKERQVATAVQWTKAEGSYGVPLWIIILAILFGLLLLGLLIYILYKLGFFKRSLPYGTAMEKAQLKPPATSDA
T1 sequence (P05556 21-798, chain 2 of 2): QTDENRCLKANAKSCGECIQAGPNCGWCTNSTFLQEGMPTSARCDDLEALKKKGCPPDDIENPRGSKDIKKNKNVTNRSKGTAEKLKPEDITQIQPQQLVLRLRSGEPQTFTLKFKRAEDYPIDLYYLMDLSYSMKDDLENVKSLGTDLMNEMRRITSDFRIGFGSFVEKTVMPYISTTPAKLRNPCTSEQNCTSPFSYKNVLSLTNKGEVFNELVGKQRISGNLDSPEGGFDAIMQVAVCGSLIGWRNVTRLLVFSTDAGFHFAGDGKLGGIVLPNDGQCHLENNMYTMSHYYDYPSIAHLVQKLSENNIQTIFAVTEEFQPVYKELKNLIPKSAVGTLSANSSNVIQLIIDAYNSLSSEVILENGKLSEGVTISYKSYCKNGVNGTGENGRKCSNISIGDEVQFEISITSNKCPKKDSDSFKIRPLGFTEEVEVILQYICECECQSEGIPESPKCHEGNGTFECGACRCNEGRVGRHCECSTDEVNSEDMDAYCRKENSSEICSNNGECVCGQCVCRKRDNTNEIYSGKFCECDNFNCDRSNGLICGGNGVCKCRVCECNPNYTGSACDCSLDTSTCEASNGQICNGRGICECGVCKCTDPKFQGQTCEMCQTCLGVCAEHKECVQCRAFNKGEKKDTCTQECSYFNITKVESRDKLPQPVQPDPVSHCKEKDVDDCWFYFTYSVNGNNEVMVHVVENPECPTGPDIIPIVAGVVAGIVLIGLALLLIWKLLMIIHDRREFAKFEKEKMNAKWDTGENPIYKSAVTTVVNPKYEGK
Experiment: competitive ELISA, fibronectin coated
Starred links: 1 amine or outer side, 2 acyl side, 3 side chain; linkers in the order of their positions; H or OH if unused. Positions of bridges follow the written chain, without caps; N, C: chain ends. Non-standard residues stand in square brackets, D forms with d. Primed or numbered codes have the meaning given here. No end group written: not given here. Tyr(OMe)″ = O-methyl-tyrosine (Y-OMe, TyrOMe, O-Me-Tyr), COc1ccc(C[C@H](N[*:1])C(=O)[*:2])cc1; Tyr(Me) = O-methyl-tyrosine (Y-OMe, O-Me-Tyr), COc1ccc(C[C@H](N[*:1])C(=O)[*:2])cc1; Tyr(nHex) = O-n-hexyl-tyrosine, CCCCCCOc1ccc(C[C@H](N[*:1])C(=O)[*:2])cc1; Cys(β,β-pentamethylene) = O=C([C@@H](N[*:1])C1(S[*:3])CCCCC1)[*:2]; 1Nal = N[C@@H](Cc1cccc2ccccc12)C(=O)O; Pen = CC(C)(S)[C@H](N)C(=O)O
IC50 reference

Binder | IC50
R[Pen]GHRGD[1Nal]RCR (disulfide 2-10) [R(Pen)GHRGD(1-Nal)RCR] | 10 µM
R[Cys(β,β-pentamethylene)]GHRGD[Tyr(nHex)]RCR (disulfide 2-10) [R(Pmc)GHRGD(O-n-hexyl-Tyr)RCR] | 2 µM
D[Cys(β,β-pentamethylene)]GHRGD[Tyr(OMe)″]RCR (disulfide 2-10) [D(Pmc)GHRGD(O-Me-Tyr)RCR] | 10 µM
R[Pen]GRGDTPCA (disulfide 2-9) [R(Pen)GRGDTPCA] | 0.08 µM
K[Pen]GRGDTPCA (disulfide 2-9, 21 numbers stand for 20 rows, so none is assigned) [K(Pen)GRGDTPCA] | 0.03 µM
R[Cys(β,β-pentamethylene)]GHRGD[Tyr(Me)]KCR (disulfide 2-10) [R(Pmc)GHRGD(O-Me-Tyr)KCR] | 10 µM
